Data provenance: paper PMC6968685

assayExplanation: Cytotoxicity evaluation, MTT
Type: cell-based, human
assayContext: human
measuredProperty: CC50 at 72 h (µM)
Answers are plain numbers, in µM.

- entrySmiles: "COc1ccc2c(-c3ccc(CNCCCCN4CCN(C)CC4)cc3)nc(-c3ccc(CNCCCCN4CCN(C)CC4)cc3)cc2c1"
  observedValue: 6.48
- entrySmiles: "c1cc(CNCCN2CCOCC2)cc(-c2cc(-c3cccc(CNCCN4CCOCC4)c3)c3ccccc3n2)c1"
  observedValue: 3.93
- entrySmiles: "c1cc(CNCCCN2CCOCC2)cc(-c2nc(-c3cccc(CNCCCN4CCOCC4)c3)c3ccccc3n2)c1"
  observedValue: 2.64
- entrySmiles: "COc1ccc2c(-c3ccc(CNCCCCN4CCN(C)CC4)cc3)nc(-c3ccc(CNCCCCN4CCN(C)CC4)cc3)nc2c1"
  observedValue: 17.4
- entrySmiles: "c1ccc2c(-c3ccc(CNCCCN4CCOCC4)cc3)cc(-c3ccc(CNCCCN4CCOCC4)cc3)nc2c1"
  observedValue: 1.47

List the reported CC50 at 72 h of each compound below.
1. CN1CCN(CCCNCc2cccc(-c3nc(-c4cccc(CNCCCN5CCN(C)CC5)c4)c4ccccc4n3)c2)CC1
2. COc1ccc2cc(-c3ccc(CNCCCCN4CCN(C)CC4)cc3)nc(-c3ccc(CNCCCCN4CCN(C)CC4)cc3)c2c1

Marked response:
1. 29.6
2. 10.2

====

Would you mind telling me the reported CC50 at 72 h of each entry?
assayExplanation: Cytotoxicity evaluation, MTT
Type: cell-based, human
assayContext: human
One number for each entry, in µM.

A selection of reference data follows.
- entrySmiles: "CN1CCN(CCCNCc2ccc(-c3cc(-c4ccc(CNCCCN5CCN(C)CC5)cc4)c4ccccc4n3)cc2)CC1"
  CC50 at 72 h (µM): 11.3
- entrySmiles: "CN(C)CCNCc1ccc(-c2cc(-c3ccc(CNCCN(C)C)cc3)c3ccccc3n2)cc1"
  CC50 at 72 h (µM): 3.1
- entrySmiles: "CN1CCN(CCCNCc2ccc(-c3cc4ccccc4c(-c4ccc(CNCCCN5CCN(C)CC5)cc4)n3)cc2)CC1"
  CC50 at 72 h (µM): 14.8

Moving on to another molecule below.
Exam item: Requested field: CC50 at 72 h. Item: COc1ccc2nc(-c3ccc(CNCCCN(C)C)cc3)nc(-c3ccc(CNCCCN(C)C)cc3)c2c1
Marked response: 1.93

====

Field: ΔTm FPf8T. Provide a value for each of the compounds that follow.
Tested on: Plasmodium telomeric sequence FPf8T G-quadruplex
assayExplanation: FRET melting experiments, FPf8T
Assay type: binding, P. falciparum
assayContext: 2 μM compound, 0.2 μM oligonucleotide, K+ conditions
Answers are plain numbers, in °C.

For the 3 compounds below, give their ΔTm FPf8T values.
1. c1ccc2c(-c3ccc(CNCCCN4CCOCC4)cc3)cc(-c3ccc(CNCCCN4CCOCC4)cc3)nc2c1 [Compound 1g]
2. COc1ccc2cc(-c3ccc(CNCCCN(C)C)cc3)nc(-c3ccc(CNCCCN(C)C)cc3)c2c1 [Compound 2f]
3. CN(C)CCCNCc1ccc(-c2cc(-c3ccc(CNCCCN(C)C)cc3)c3ccccc3n2)cc1 [Compound 1b]

Marked response:
1: 3.7; 2: 18.5; 3: 9.9

Exam item: Field: ΔTm FPf8T (Plasmodium telomeric sequence FPf8T G-quadruplex). Entry: CN(C)CCCNCc1ccc(-c2nc(-c3ccc(CNCCCN(C)C)cc3)c3ccccc3n2)cc1 [Compound 3b]
Marked response: 11.2

====

Kindly supply the reported melting point values for the records listed here.
Where a name gives a salt, the structure may show the parent alone.

List melting point for every entry below, keeping the order given.
1. CN1CCN(CCCCNCc2ccc(-c3nc(-c4ccc(CNCCCCN5CCN(C)CC5)cc4)c4ccccc4n3)cc2)CC1 (as salt: (cooh)2) [Compound 3d]
2. COc1ccc2c(-c3ccc(CNCCN4CCN(C)CC4)cc3)nc(-c3ccc(CNCCN4CCN(C)CC4)cc3)nc2c1 (as salt: (cooh)2) [Compound 3r]
3. CN(C)CCCCNCc1ccc(-c2nc(-c3ccc(CNCCCCN(C)C)cc3)c3ccccc3n2)cc1 (as salt: (cooh)2) [Compound 3a]

Marked response:
["223 to 225 °C", "238 to 240 °C", "153 to 155 °C"]

Give melting point for each of the items listed below.
1. COc1ccc2c(-c3ccc(CNCCCCN4CCN(C)CC4)cc3)cc(-c3ccc(CNCCCCN4CCN(C)CC4)cc3)nc2c1 (as salt: (cooh)2) [Compound 1o]
2. c1ccc2c(-c3ccc(CNCCCN4CCOCC4)cc3)cc(-c3ccc(CNCCCN4CCOCC4)cc3)nc2c1 (as salt: (cooh)2) [Compound 1g]
3. COc1ccc2nc(-c3ccc(CNCCCCN4CCN(C)CC4)cc3)cc(-c3ccc(CNCCCCN4CCN(C)CC4)cc3)c2c1 (as salt: (cooh)2) [Compound 1k]
4. c1cc(CNCCCN2CCOCC2)cc(-c2nc(-c3cccc(CNCCCN4CCOCC4)c3)c3ccccc3n2)c1 (as salt: (cooh)2) [Compound 3u]
5. c1cc(CNCCCN2CCOCC2)cc(-c2cc(-c3cccc(CNCCCN4CCOCC4)c3)c3ccccc3n2)c1 (as salt: (cooh)2) [Compound 1s]

Marked response:
1. 237 to 239 °C
2. 202 to 204 °C
3. 235 to 237 °C
4. 186 to 188 °C
5. 221 to 223 °C

Consider the following items and state reported melting point for each.
1. COc1ccc2c(-c3ccc(CNCCCCN(C)C)cc3)nc(-c3ccc(CNCCCCN(C)C)cc3)cc2c1 (as salt: (cooh)2) [Compound 2i]
2. COc1ccc2c(-c3ccc(CNCCCN4CCN(C)CC4)cc3)nc(-c3ccc(CNCCCN4CCN(C)CC4)cc3)nc2c1 (as salt: (cooh)2) [Compound 3q]
3. COc1ccc2c(-c3ccc(CNCCCN4CCN(C)CC4)cc3)cc(-c3ccc(CNCCCN4CCN(C)CC4)cc3)nc2c1 (as salt: (cooh)2) [Compound 1p]
4. CN1CCN(CCCNCc2cccc(-c3cc(-c4cccc(CNCCCN5CCN(C)CC5)c4)c4ccccc4n3)c2)CC1 (as salt: (cooh)2) [Compound 1r]
5. CN(C)CCCNCc1ccc(-c2cc(-c3ccc(CNCCCN(C)C)cc3)c3ccccc3n2)cc1 (as salt: (cooh)2) [Compound 1b]
6. c1cc(CNCCN2CCOCC2)cc(-c2cc(-c3cccc(CNCCN4CCOCC4)c3)c3ccccc3n2)c1 (as salt: (cooh)2) [Compound 1t]
7. CN(C)CCCNCc1ccc(-c2cc3ccccc3c(-c3ccc(CNCCCN(C)C)cc3)n2)cc1 (as salt: (cooh)2) [Compound 2b]

Marked response:
1: 135 to 137 °C; 2: 229 to 231 °C; 3: 245 to 247 °C; 4: 237 to 239 °C; 5: 244 to 246 °C; 6: 225 to 227 °C; 7: 186 to 188 °C

Return reported melting point values for all items listed beneath this line.
1. COc1ccc2cc(-c3ccc(CNCCCCN4CCN(C)CC4)cc3)nc(-c3ccc(CNCCCCN4CCN(C)CC4)cc3)c2c1 (as salt: (cooh)2) [Compound 2g]
2. COc1ccc2c(-c3ccc(CNCCCCN4CCN(C)CC4)cc3)nc(-c3ccc(CNCCCCN4CCN(C)CC4)cc3)cc2c1 (as salt: (cooh)2) [Compound 2k]
3. CN1CCN(CCCCNCc2ccc(-c3cc(-c4ccc(CNCCCCN5CCN(C)CC5)cc4)c4ccccc4n3)cc2)CC1 (as salt: (cooh)2) [Compound 1d]

Marked response:
1: 172 to 174 °C; 2: 216 to 218 °C; 3: 225 to 227 °C

====

Where a name gives a salt, the structure may show the parent alone.
Give melting point for every item shown.

# annotated cases, reported melting point shown
- compound: "COc1ccc2nc(-c3ccc(CNCCCN4CCN(C)CC4)cc3)nc(-c3ccc(CNCCCN4CCN(C)CC4)cc3)c2c1 (as salt: (cooh)2)"
  melting point: "227 to 229 °C"
- compound: "CN(C)CCNCc1ccc(-c2cc(-c3ccc(CNCCN(C)C)cc3)c3ccccc3n2)cc1 (as salt: (cooh)2)"
  melting point: "229 to 231 °C"
- compound: "COc1ccc2nc(-c3ccc(CNCCCCN(C)C)cc3)nc(-c3ccc(CNCCCCN(C)C)cc3)c2c1 (as salt: (cooh)2)"
  melting point: "156 to 158 °C"
- compound: "COc1ccc2c(-c3ccc(CNCCCN(C)C)cc3)nc(-c3ccc(CNCCCN(C)C)cc3)cc2c1 (as salt: (cooh)2)"
  melting point: "171 to 173 °C"
- compound: "COc1ccc2c(-c3ccc(CNCCCCN(C)C)cc3)cc(-c3ccc(CNCCCCN(C)C)cc3)nc2c1 (as salt: (cooh)2)"
  melting point: "208 to 210 °C"

Quick one: give me melting point for each item below, same order please.
1. COc1ccc2c(-c3ccc(CNCCCN4CCN(C)CC4)cc3)nc(-c3ccc(CNCCCN4CCN(C)CC4)cc3)cc2c1 (as salt: (cooh)2)
2. c1ccc2c(-c3ccc(CNCCN4CCOCC4)cc3)nc(-c3ccc(CNCCN4CCOCC4)cc3)nc2c1 (as salt: (cooh)2)
3. CN(C)CCCNCc1ccc(-c2nc(-c3ccc(CNCCCN(C)C)cc3)c3ccccc3n2)cc1 (as salt: (cooh)2)
4. COc1ccc2nc(-c3ccc(CNCCCCN(C)C)cc3)cc(-c3ccc(CNCCCCN(C)C)cc3)c2c1 (as salt: (cooh)2)
5. CN1CCN(CCCNCc2ccc(-c3nc(-c4ccc(CNCCCN5CCN(C)CC5)cc4)c4ccccc4n3)cc2)CC1 (as salt: (cooh)2)
6. c1ccc2c(-c3ccc(CNCCN4CCOCC4)cc3)cc(-c3ccc(CNCCN4CCOCC4)cc3)nc2c1 (as salt: (cooh)2)
7. CN1CCN(CCNCc2ccc(-c3cc(-c4ccc(CNCCN5CCN(C)CC5)cc4)c4ccccc4n3)cc2)CC1 (as salt: (cooh)2)

Marked response:
1: 226 to 228 °C; 2: 195 to 197 °C; 3: 203 to 205 °C; 4: 227 to 229 °C; 5: 229 to 231 °C; 6: 235 to 237 °C; 7: 240 to 242 °C

Provide melting point for all items below, preserving their order.
1. COc1ccc2c(-c3ccc(CNCCCN(C)C)cc3)cc(-c3ccc(CNCCCN(C)C)cc3)nc2c1 (as salt: (cooh)2)
2. CN1CCN(CCCNCc2ccc(-c3cc4ccccc4c(-c4ccc(CNCCCN5CCN(C)CC5)cc4)n3)cc2)CC1 (as salt: (cooh)2)

Marked response:
1: 237 to 239 °C; 2: 217 to 219 °C
